For each of the binders below, state its pEC50.
Target: T1, human KLB on CHOK1-hKLB cells (human, UniProt Q86Z14 1-1044)
T1 construct: whole, on cells; also called human KLB antigen; β-Klotho
T1 sequence (looked up): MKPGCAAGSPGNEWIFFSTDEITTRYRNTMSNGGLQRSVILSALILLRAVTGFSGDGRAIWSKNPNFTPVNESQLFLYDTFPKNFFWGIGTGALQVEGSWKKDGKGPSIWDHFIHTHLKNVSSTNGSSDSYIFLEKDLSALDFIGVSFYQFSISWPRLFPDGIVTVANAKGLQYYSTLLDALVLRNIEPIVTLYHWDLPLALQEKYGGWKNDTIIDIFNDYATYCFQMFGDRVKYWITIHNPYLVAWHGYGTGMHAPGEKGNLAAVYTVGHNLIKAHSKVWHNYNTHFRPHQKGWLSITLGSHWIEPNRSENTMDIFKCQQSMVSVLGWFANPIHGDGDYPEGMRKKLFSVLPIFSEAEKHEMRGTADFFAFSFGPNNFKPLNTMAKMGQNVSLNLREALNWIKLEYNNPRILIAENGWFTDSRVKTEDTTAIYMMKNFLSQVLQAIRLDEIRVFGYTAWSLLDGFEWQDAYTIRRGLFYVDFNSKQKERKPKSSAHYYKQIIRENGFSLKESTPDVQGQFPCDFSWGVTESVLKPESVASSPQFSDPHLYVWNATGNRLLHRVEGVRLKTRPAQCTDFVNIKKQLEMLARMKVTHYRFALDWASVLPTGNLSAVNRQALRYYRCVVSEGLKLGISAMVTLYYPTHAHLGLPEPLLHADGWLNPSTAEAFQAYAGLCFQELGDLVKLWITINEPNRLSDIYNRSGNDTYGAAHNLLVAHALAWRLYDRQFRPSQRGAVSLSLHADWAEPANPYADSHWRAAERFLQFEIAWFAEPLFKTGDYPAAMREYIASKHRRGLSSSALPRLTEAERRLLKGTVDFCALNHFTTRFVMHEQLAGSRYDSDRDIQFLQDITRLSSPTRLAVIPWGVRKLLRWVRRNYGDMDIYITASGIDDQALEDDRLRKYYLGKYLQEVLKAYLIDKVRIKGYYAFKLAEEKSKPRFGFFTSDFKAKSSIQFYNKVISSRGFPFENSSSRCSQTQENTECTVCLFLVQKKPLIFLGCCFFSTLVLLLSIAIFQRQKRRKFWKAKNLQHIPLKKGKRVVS
Assay: flow cytometry on CHOK1-hKLB cells
Interpret pEC50 as the negative base-10 log of the concentration measured in mol/L.

Please indicate pEC50 recorded for mAb99-hIgG1 (antibody, V domains shown, chimeric: murine mAb-99 variable regions on human IgG1 (L234A, L235A) / kappa constant regions; also called chimeric antibody of mAb99) VH: EVQLQQSGAELVRPGSSVKMSCKTSGYTFTNYGINWVKQRPRQGLEWIGYIYIGNGDIEYNAKFKGKATLTSDTSSSTAYMQLSSLTSEDSAIYFCARGRGLGHFDVWGTGTTVTVSS VL: DVQITQSPSYLAASPGETITINCRASKSISKFLAWFQEKPGKTNKLLIYSGSTLQSGIPSRFSGSGSGTDFTLTISGLEPEDFAMYYCQQHNEYPWTFGGGTKLEIKR
9.01

Fill in reported pEC50 for this entry: hAb18-9 (antibody, human IgG1, kappa, L234A L235A, V domains shown, humanized mAb-18: hAb18VH1 + hAb18VL2-3; human IgG1 (L234A, L235A) / kappa constant regions) VH: EVQLVQSGAEVKKPGASVKVSCKASGYTFTDYAMHWVRQAPGQRLEWMGVISTYSGTTNYNQNFKGRVTITVDKSASTAYMELSSLRSEDTAVYYCARSGPLDYWGQGTTVTVSS VL: ENVLTQSPDFQSVTPKEKVTITCRVSSSVSSSYLHWYQQKPDQSPKLWIYSTSQLASGVPSRFSGSGSGTDYTLTINSLEAEDAATYYCQQYSGYPLTFGQGTKLEIKR
8.62

Give the value of pEC50 reported for the following: hAb18-16 (antibody, human IgG1, kappa, L234A L235A, V domains shown, humanized mAb-18: hAb18VH1 + hAb18VL2-10; human IgG1 (L234A, L235A) / kappa constant regions) VH: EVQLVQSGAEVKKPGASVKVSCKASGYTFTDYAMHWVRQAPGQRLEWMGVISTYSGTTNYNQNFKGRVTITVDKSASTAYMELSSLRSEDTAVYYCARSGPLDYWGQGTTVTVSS VL: ENVLTQSPDFQSVTPKEKVTITCRASSSVSTSYLHWYQQKPDQSPKLWIYSTSNLASGVPSRFSGSGSGTDYTLTINSLEAEDAATYYCQQYSGYPLTFGQGTKLEIKR
8.62

Origin of values: patent US20240270874A1
